From: ChEMBL document CHEMBL1145089

# protocol-details: In vitro half life at pH 7.4 and 37 degrees C
# Format: ADME
# assay-setup: buffer
assay-readout: log10(half-life) (log10 of the value in min)
Log scale reminder: half-life in min, then log10 taken.

The following compounds have reported results that may help.
{"columns": ["structure-as-smiles", "assay-result"],
 "data": [
  ["Cc1cccc(C)c1OCC(=O)N[C@@H](Cc1ccccc1)[C@H](OC(=O)CCC(=O)NCCCN1CCOCC1)C(=O)N1CSC(C)(C)[C@H]1C(=O)NC(C)(C)C.Cl", 1.90],
  ["Cc1cccc(C)c1OCC(=O)N[C@@H](Cc1ccccc1)[C@H](OC(=O)CCCC(=O)NCCN1CCOCC1)C(=O)N1CSC(C)(C)[C@H]1C(=O)NC(C)(C)C.Cl", 3.31]
]}

Inquiry: So what's the measured log10(half-life) for this one? `Cc1cccc(C)c1OCC(=O)N[C@@H](Cc1ccccc1)[C@H](OC(=O)CCC(=O)NCCN1CCOCC1)C(=O)N1CSC(C)(C)[C@H]1C(=O)NC(C)(C)C.Cl`
Reply text: 1.61

Inquiry: So what's the measured log10(half-life) for this one? `Cc1cccc(C)c1OCC(=O)N[C@@H](Cc1ccccc1)[C@H](OC(=O)CCC(=O)NCCN1CCCC1)C(=O)N1CSC(C)(C)[C@H]1C(=O)NC(C)(C)C.Cl`
Reply text: 0.90

Inquiry: So what's the measured log10(half-life) for this one? `Cc1cccc(C)c1OCC(=O)N[C@@H](Cc1ccccc1)[C@H](OC(=O)CCC(=O)NCc1ccncc1)C(=O)N1CSC(C)(C)[C@H]1C(=O)NC(C)(C)C.Cl`
Reply text: 1.54

###

# protocol-details: C max was determined
# Assay type: ADME, organism-based
# assay-setup: in vivo
assay-readout: Cmax (ng/mL)
Write the answer as a number in ng/mL, unit excluded.

The following compounds have reported results that may help.
{"columns": ["structure-as-smiles", "unit-info", "Cmax"],
 "data": [
  ["Cc1cccc(C)c1OCC(=O)N[C@@H](Cc1ccccc1)[C@H](OC(=O)CCC(=O)NCCN1CCCC1)C(=O)N1CSC(C)(C)[C@H]1C(=O)NC(C)(C)C.Cl", "ng/mL", 840],
  ["Cc1cccc(C)c1OCC(=O)N[C@@H](Cc1ccccc1)[C@H](OC(=O)CCCC(=O)NCCN1CCOCC1)C(=O)N1CSC(C)(C)[C@H]1C(=O)NC(C)(C)C.Cl", "ng/mL", 480]
]}

Let us move to another entry and its Cmax.
Inquiry: So what's the measured Cmax for this one? `Cc1cccc(C)c1OCC(=O)N[C@@H](Cc1ccccc1)[C@H](OC(=O)CCC(=O)NCCN1CCOCC1)C(=O)N1CSC(C)(C)[C@H]1C(=O)NC(C)(C)C.Cl`
Reply text: 1890

###

# protocol-details: C max was determined
# Format: ADME, organism-based
# assay-setup: in vivo
assay-readout: Cmax (ng/mL)
Write the answer as a number in ng/mL, unit excluded.

{"columns": ["structure-as-smiles", "assay-result"],
 "data": [
  ["Cc1cccc(C)c1OCC(=O)N[C@@H](Cc1ccccc1)[C@H](OC(=O)CCC(=O)NCCN)C(=O)N1CSC(C)(C)[C@H]1C(=O)NC(C)(C)C.Cl", 650],
  ["Cc1cccc(C)c1OCC(=O)N[C@@H](Cc1ccccc1)[C@H](O)C(=O)N1CSC(C)(C)[C@H]1C(=O)NC(C)(C)C", 1230]
]}

Let us move to another entry and its Cmax.
Inquiry: So what's the measured Cmax for this one? `Cc1cccc(C)c1OCC(=O)N[C@@H](Cc1ccccc1)[C@H](OC(=O)CCCC(=O)NCCN)C(=O)N1CSC(C)(C)[C@H]1C(=O)NC(C)(C)C.Cl`
Reply text: 460

###

Reported Cmax is given for each of the following compounds.
# protocol-details: C max was determined
# Format: ADME, organism-based
# assay-setup: in vivo
Write the answer as a number in ng/mL, unit excluded.

{"columns": ["structure-as-smiles", "Cmax / ng/mL"],
 "data": [
  ["Cc1cccc(C)c1OCC(=O)N[C@@H](Cc1ccccc1)[C@H](OC(=O)CCC(=O)NCc1cccnc1)C(=O)N1CSC(C)(C)[C@H]1C(=O)NC(C)(C)C.Cl", 1370]
]}

Inquiry: So what's the measured Cmax for this one? `Cc1cccc(C)c1OCC(=O)N[C@@H](Cc1ccccc1)[C@H](OC(=O)CCC(=O)NCCCN1CCOCC1)C(=O)N1CSC(C)(C)[C@H]1C(=O)NC(C)(C)C.Cl`
Reply text: 410

Inquiry: So what's the measured Cmax for this one? `Cc1cccc(C)c1OCC(=O)N[C@@H](Cc1ccccc1)[C@H](OC(=O)CCC(=O)NCc1ccncc1)C(=O)N1CSC(C)(C)[C@H]1C(=O)NC(C)(C)C.Cl`
Reply text: 1620
